// provenance: patent US20240199640A1

molecular target: rat mGlu2 (Rattus norvegicus, UniProt P31421); construct: expressed in transfected cells; host or cells: HEK-293; test: mGlu GIRK cell-based thallium flux assay, rat mGlu2; conditions: rat mGlu2 GIRK IC50 (nM), HEK-293 cells co-expressing rat mGlu2 and GIRK; EC80 glutamate; Tl flux
Sequence (P31421 19-872): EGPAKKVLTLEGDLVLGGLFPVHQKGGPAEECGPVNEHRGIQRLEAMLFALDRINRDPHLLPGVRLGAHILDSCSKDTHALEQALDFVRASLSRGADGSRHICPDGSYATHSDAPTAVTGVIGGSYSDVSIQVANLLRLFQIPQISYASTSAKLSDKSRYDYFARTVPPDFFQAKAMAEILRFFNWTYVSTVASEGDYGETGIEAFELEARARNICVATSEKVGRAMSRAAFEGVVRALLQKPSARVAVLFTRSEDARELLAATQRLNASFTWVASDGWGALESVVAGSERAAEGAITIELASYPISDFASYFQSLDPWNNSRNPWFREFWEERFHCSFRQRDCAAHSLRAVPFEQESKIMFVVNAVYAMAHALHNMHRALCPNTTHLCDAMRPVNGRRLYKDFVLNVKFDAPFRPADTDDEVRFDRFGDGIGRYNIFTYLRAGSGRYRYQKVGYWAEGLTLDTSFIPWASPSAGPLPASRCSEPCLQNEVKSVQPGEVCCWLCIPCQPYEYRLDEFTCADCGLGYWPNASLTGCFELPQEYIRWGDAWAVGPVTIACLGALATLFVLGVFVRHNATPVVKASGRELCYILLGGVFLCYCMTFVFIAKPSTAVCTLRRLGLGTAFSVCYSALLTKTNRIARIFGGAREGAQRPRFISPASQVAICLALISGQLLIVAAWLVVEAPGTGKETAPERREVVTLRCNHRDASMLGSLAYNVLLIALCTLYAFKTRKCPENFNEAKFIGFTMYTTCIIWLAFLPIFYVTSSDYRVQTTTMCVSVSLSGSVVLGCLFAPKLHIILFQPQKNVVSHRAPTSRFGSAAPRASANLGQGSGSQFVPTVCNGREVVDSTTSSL
Task for the reader: assign each of the following compounds its reported IC50.
Respond numerically; units are nM and should not be typed.

Query :: Please provide the recorded IC50 for Cc1cc(S(=O)(=O)N2CC(Oc3cc4c(cc3-c3ccc(F)cc3)C(=O)NC4)C2)nn1C , tested on rat mGlu2 (Rattus norvegicus, UniProt P31421).
Result :: 2670

Query :: Please provide the recorded IC50 for O=C1NCc2cc(Oc3ccncc3)c(-c3ccc(F)cc3)cc21 , tested on rat mGlu2 (Rattus norvegicus, UniProt P31421).
Result :: 1160

Query :: Please provide the recorded IC50 for O=C1NCc2cc(OC3CN(Cc4ccc5ncccc5c4)C3)c(-c3ccc(F)cc3)cc21 , tested on rat mGlu2 (Rattus norvegicus, UniProt P31421).
Result :: 5000

Query :: Please provide the recorded IC50 for Cn1ccc(COc2cc3c(cc2-c2ccc4c(c2)CCO4)C(=O)NC3)n1 , tested on rat mGlu2 (Rattus norvegicus, UniProt P31421).
Result :: 965

Query :: Please provide the recorded IC50 for O=C1NCc2cc(OC3CN(Cc4cccnc4Cl)C3)c(-c3ccc(F)cc3)cc21 , tested on rat mGlu2 (Rattus norvegicus, UniProt P31421).
Result :: 2610

Query :: Please provide the recorded IC50 for O=C1NCc2cc(OC3CN(Cc4ccc(C(F)(F)F)o4)C3)c(-c3ccc(F)cc3)cc21 , tested on rat mGlu2 (Rattus norvegicus, UniProt P31421).
Result :: 1670

Query :: Please provide the recorded IC50 for [2H]C1([2H])NC(=O)c2cc(-c3ccc(F)cc3)c(OC([2H])([2H])c3cnn(C)c3)cc21 , tested on rat mGlu2 (Rattus norvegicus, UniProt P31421).
Result :: 836

Query :: Please provide the recorded IC50 for CC(Oc1cc2c(cc1-c1ccc(OC(F)F)cc1F)C(=O)NC2)c1ccncc1 (centres unmarked) , tested on rat mGlu2 (Rattus norvegicus, UniProt P31421).
Result :: 781

Query :: Please provide the recorded IC50 for CC(Oc1cc2c(cc1-c1ccc(F)cc1F)C(=O)NC2)c1ccncc1 (centres unmarked) , tested on rat mGlu2 (Rattus norvegicus, UniProt P31421).
Result :: 305

Query :: Please provide the recorded IC50 for Cn1ccc(N2CC(Oc3cc4c(cc3-c3ccc(F)cc3)C(=O)NC4)C2)n1 , tested on rat mGlu2 (Rattus norvegicus, UniProt P31421).
Result :: 1960

Query :: Please provide the recorded IC50 for Cn1ccc(COc2cc3c(cc2-c2ccc4ncsc4c2)C(=O)NC3)n1 , tested on rat mGlu2 (Rattus norvegicus, UniProt P31421).
Result :: 675

Query :: Please provide the recorded IC50 for Cn1ccc(COc2cc3c(cc2-c2ccc(OC(F)F)cc2F)C(=O)NC3)n1 , tested on rat mGlu2 (Rattus norvegicus, UniProt P31421).
Result :: 393

###

target: rat mGlu2 (Rattus norvegicus, UniProt P31421); construct: expressed in transfected cells; host or cells: HEK-293; assay: mGlu GIRK cell-based thallium flux assay, rat mGlu2; conditions: rat mGlu2 GIRK IC50 (nM), HEK-293 cells co-expressing rat mGlu2 and GIRK; EC80 glutamate; Tl flux
OUTCOME MEASURE: IC50 (nM)
Respond numerically; units are nM and should not be typed.

Query :: If you can, please state the reported IC50 value of Cc1nn(C)cc1-c1cc2c(cc1OCc1ccn(C)n1)CNC2=O .
Result :: 3820

Query :: If you can, please state the reported IC50 value of Cc1csc(C(C)Oc2cc3c(cc2-c2ccc(F)cc2)C(=O)NC3)n1 (stereo not shown) .
Result :: 1690

Query :: If you can, please state the reported IC50 value of Cc1csc(C)c1S(=O)(=O)N1CC(Oc2cc3c(cc2-c2ccc(F)cc2)C(=O)NC3)C1 .
Result :: 1000

###

OUTCOME MEASURE: IC50 (nM)
Respond numerically; units are nM and should not be typed.

Query :: Please provide the recorded IC50 for Cc1ocnc1COc1cc2c(cc1-c1ccc(F)cc1)C(=O)NC2 [Compound 9] , tested on human mGlu2 (Homo sapiens, UniProt Q14416).
Sequence (Q14416 19-872): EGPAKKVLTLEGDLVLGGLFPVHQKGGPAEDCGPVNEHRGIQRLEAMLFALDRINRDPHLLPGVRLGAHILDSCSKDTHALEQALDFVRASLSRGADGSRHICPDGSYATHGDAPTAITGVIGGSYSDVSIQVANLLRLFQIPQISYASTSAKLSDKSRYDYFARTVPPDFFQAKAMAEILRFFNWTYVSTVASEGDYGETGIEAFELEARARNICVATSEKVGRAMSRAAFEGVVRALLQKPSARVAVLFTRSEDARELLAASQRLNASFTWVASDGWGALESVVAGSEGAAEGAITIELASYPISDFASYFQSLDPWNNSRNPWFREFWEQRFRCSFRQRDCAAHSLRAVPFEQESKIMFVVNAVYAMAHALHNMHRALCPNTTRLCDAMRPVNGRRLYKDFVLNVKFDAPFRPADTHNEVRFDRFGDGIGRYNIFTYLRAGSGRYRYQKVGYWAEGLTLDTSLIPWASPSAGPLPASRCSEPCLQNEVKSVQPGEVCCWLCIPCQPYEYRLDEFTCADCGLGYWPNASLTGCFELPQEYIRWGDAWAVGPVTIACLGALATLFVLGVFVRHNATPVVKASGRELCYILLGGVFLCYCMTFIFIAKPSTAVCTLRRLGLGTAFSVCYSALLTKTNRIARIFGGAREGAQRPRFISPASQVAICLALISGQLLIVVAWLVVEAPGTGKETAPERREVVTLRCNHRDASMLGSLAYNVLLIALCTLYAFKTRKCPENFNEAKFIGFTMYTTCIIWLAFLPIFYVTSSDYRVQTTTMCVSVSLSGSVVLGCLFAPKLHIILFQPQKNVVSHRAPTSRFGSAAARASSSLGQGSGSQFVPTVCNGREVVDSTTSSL
Result :: 150

Query :: Please provide the recorded IC50 for O=C1NCc2cc(OCc3ccn(C(F)F)n3)c(-c3ccc(F)cc3)cc21 [Compound 17] , tested on human mGlu2 (Homo sapiens, UniProt Q14416).
Result :: 292

Query :: Please provide the recorded IC50 for Cc1nc(COc2cc3c(cc2-c2ccccc2F)C(=O)NC3)cs1 [Compound 16] , tested on human mGlu2 (Homo sapiens, UniProt Q14416).
Result :: 357

Query :: Please provide the recorded IC50 for Cc1ccc(COc2cc3c(cc2-c2ccc(F)cc2)C(=O)NC3)cn1 [Compound 5] , tested on human mGlu2 (Homo sapiens, UniProt Q14416).
Result :: 392

Query :: Please provide the recorded IC50 for COc1cccc(COc2cc3c(cc2-c2ccc(F)cc2)C(=O)NC3)c1 [Compound 7] , tested on human mGlu2 (Homo sapiens, UniProt Q14416).
Result :: 8290

Query :: Please provide the recorded IC50 for O=C1NCc2cc(OCc3ccccc3F)c(-c3ccc(F)cc3)cc21 [Compound 8] , tested on human mGlu2 (Homo sapiens, UniProt Q14416).
Result :: 3200

Query :: Please provide the recorded IC50 for [2H]C([2H])([2H])Oc1ccccc1-c1cc2c(cc1OCc1csc(C)n1)CNC2=O [Compound 21] , tested on human mGlu2 (Homo sapiens, UniProt Q14416).
Result :: 1320

###

molecular target: UniProtKB Q14416
Exam item: assign 1.0 to entries whose IC50 is below 200 nM and 0.0 to entries at or above 200 nM. Note that a value of exactly 200 nM receives 0.0.

Query :: Could you please tell me whether IC50 recorded for O=C1NCc2cc(OCc3ccncc3)c(-c3ccc(F)cc3)cc21 is less than 200 nM?
Result :: 0.0

Query :: Could you please tell me whether IC50 recorded for Cc1nc(COc2cc3c(cc2-c2ccccc2C#N)C(=O)NC3)cs1 is less than 200 nM?
Result :: 1.0

Query :: Could you please tell me whether IC50 recorded for COc1ccc(-c2cc3c(cc2OCc2csc(C)n2)CNC3=O)c(F)c1 is less than 200 nM?
Result :: 0.0

Query :: Could you please tell me whether IC50 recorded for Cc1csc(COc2cc3c(cc2-c2ccc(F)cc2)C(=O)NC3)n1 is less than 200 nM?
Result :: 0.0

Query :: Could you please tell me whether IC50 recorded for Cc1ncc(COc2cc3c(cc2-c2ccc(F)cc2)C(=O)NC3)s1 is less than 200 nM?
Result :: 0.0

Query :: Could you please tell me whether IC50 recorded for COc1ccc(-c2cc3c(cc2OCc2ccn(C)n2)CNC3=O)cc1 is less than 200 nM?
Result :: 1.0

Query :: Could you please tell me whether IC50 recorded for Cn1ccc(COc2cc3c(cc2-c2ccccc2F)C(=O)NC3)n1 is less than 200 nM?
Result :: 0.0

Query :: Could you please tell me whether IC50 recorded for [2H]C([2H])([2H])Oc1ccc(-c2cc3c(cc2OCc2ccn(C)n2)CNC3=O)cc1 is less than 200 nM?
Result :: 1.0

Query :: Could you please tell me whether IC50 recorded for Cn1ccc(COc2cc3c(cc2-c2ccc(C#N)cc2)C(=O)NC3)n1 is less than 200 nM?
Result :: 0.0

###

Task for the reader: assign each of the following compounds its reported log10 IC50.
All values: log10 IC50 [nM].

Query :: Please provide the recorded log10 IC50 for COc1ccc(-c2cc3c(cc2OCc2csc(C)n2)CNC3=O)cc1 [Compound 19] , tested on human mGlu2 (Homo sapiens, UniProt Q14416).
Result :: 2.08

Query :: Please provide the recorded log10 IC50 for Cc1nc(COc2cc3c(cc2-c2ccc(F)cc2)C(=O)NC3)cs1 [Compound 18] , tested on human mGlu2 (Homo sapiens, UniProt Q14416).
Result :: 2.56

Query :: Please provide the recorded log10 IC50 for Cn1ccc(COc2cc3c(cc2-c2ccc(F)cc2)C(=O)NC3)n1 [Compound 1] , tested on human mGlu2 (Homo sapiens, UniProt Q14416).
Result :: 2.77

Query :: Please provide the recorded log10 IC50 for COc1ccc(-c2cc3c(cc2OCc2ccn(C(F)F)n2)CNC3=O)c(F)c1 [Compound 25] , tested on human mGlu2 (Homo sapiens, UniProt Q14416).
Result :: 1.60

Query :: Please provide the recorded log10 IC50 for CC(C)n1ccc(COc2cc3c(cc2-c2ccc(F)cc2)C(=O)NC3)n1 [Compound 4] , tested on human mGlu2 (Homo sapiens, UniProt Q14416).
Result :: 2.42

Query :: Please provide the recorded log10 IC50 for COc1ccc(-c2cc3c(cc2OCc2ccn(C)n2)CNC3=O)c(F)c1 [Compound 11] , tested on human mGlu2 (Homo sapiens, UniProt Q14416).
Result :: 2.12

Query :: Please provide the recorded log10 IC50 for [2H]C([2H])([2H])Oc1ccccc1-c1cc2c(cc1OCc1ccn(C)n1)CNC2=O [Compound 23] , tested on human mGlu2 (Homo sapiens, UniProt Q14416).
Result :: 3.89

Query :: Please provide the recorded log10 IC50 for [2H]C([2H])([2H])Oc1ccc(-c2cc3c(cc2OCc2csc(C)n2)CNC3=O)cc1 [Compound 22] , tested on human mGlu2 (Homo sapiens, UniProt Q14416).
Result :: 2.06

Query :: Please provide the recorded log10 IC50 for O=C1NCc2cc(OCc3cc4n(n3)CCCO4)c(-c3ccc(F)cc3)cc21 [Compound 10] , tested on human mGlu2 (Homo sapiens, UniProt Q14416).
Result :: 2.63
